# Test system: IDO1 (Homo sapiens, UniProt P14902)
# Sequence (P14902 whole entry): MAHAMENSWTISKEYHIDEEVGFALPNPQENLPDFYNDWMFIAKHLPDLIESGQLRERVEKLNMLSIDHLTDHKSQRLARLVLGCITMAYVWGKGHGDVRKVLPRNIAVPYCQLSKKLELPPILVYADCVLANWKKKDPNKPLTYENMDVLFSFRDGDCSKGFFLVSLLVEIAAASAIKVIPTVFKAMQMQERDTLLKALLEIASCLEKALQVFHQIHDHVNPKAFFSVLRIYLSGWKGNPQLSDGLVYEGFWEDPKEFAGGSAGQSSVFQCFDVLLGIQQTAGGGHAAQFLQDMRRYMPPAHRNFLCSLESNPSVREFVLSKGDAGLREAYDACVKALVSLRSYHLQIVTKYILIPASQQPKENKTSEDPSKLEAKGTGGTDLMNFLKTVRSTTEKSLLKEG
# Experiment description: IDO1 Human Whole blood Assay
# Assay type: cell-based
# Set-up: Human whole blood was drawn in sodium heparin coated tubes from healthy internal donors; from tissue; host or cells: human whole blood from healthy donors, stimulated with LPS and IFNγ
# Experimental setup: LPS and IFNγ stimulated, 18 h, read-out: Human Whole Blood Potency, IC50
Measured pIC50, listed per entry.
Hey, just a heads up that pIC50 is the negative log base 10 of the concentration in molar.

Lookup: Quick one: pIC50 of Cc1cccc(N2CCN(C(=O)Cn3nc(C(=O)N4CC[C@H](O)[C@H](F)C4)c4c3CC(C(F)F)C4)CC2)c1C (mixture of isomers) [Example 17] ?
Found: 6.20

Lookup: Bench note: what pIC50 did Cc1cccc(N2CCN(C(=O)Cn3nc(C(=O)N4CC[C@@H](O)[C@@H](F)C4)c4c3C[C@H]3C[C@@H]43)CC2)c1C [Example 288] show?
Found: 7.00
